Target sequence: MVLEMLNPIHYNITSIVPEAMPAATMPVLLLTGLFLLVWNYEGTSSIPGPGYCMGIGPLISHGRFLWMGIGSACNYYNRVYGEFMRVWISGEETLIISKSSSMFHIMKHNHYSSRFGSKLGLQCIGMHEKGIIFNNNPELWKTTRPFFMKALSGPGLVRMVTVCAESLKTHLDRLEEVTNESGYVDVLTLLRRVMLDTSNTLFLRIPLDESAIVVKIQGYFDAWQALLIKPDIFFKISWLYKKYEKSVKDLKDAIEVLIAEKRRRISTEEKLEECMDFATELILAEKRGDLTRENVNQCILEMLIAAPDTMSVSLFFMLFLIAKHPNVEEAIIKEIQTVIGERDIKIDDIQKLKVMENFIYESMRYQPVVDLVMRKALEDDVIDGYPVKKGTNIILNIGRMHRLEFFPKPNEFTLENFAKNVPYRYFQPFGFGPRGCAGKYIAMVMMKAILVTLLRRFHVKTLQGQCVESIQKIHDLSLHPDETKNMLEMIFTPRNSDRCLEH
measurement.name: Ki (nM)

line_notation=Clc1ccc(/C=C(\Cn2ccnn2)c2ccc(Cl)cc2)cc1 value=8
line_notation=Clc1ccc(/C=C(/Cn2ccnn2)c2ccc(Cl)cc2)cc1 value=97
line_notation=Brc1ccc(/C(=C\c2ccccc2)Cn2ccnn2)cc1 value=125
line_notation=Brc1ccc(/C(=C/c2ccccc2)Cn2ccnn2)cc1 value=74

[1] Brc1ccc(/C=C(/Cn2ccnn2)c2ccc(Br)cc2)cc1
[2] Clc1ccc(/C(=C\c2ccccc2)Cn2ccnn2)cc1
Query string: Which gives the smaller Ki number: 1 or 2 ? To answer, give the label that identifies your chosen option.
Result string: 2
